Target: human NaP2b (SLC34A2) (Homo sapiens)
Construct: host or cells: HEK293
Sequence (O95436 whole entry): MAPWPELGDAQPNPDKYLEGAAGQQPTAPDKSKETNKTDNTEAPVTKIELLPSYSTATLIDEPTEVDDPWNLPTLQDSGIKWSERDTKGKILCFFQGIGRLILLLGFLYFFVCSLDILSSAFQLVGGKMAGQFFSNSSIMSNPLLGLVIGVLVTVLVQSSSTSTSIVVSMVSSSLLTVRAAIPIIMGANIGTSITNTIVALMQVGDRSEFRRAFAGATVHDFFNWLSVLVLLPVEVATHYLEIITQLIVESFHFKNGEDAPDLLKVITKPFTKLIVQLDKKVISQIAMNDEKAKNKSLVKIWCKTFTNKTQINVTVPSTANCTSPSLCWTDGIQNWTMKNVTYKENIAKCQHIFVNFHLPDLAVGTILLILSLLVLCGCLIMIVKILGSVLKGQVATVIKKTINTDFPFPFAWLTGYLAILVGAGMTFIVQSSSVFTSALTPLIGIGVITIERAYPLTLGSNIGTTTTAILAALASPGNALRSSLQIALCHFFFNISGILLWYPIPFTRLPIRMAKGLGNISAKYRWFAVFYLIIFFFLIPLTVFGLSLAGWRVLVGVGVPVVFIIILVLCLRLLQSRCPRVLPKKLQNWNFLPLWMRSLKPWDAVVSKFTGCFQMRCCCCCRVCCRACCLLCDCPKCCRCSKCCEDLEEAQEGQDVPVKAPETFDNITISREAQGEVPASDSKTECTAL
Assay: NaP2b-mediated Pi transport: 33P phosphate uptake into transfected HEK293 cells
Format: cell-based
Details: human protein with threonine inserted after residue 37 and N39D, 100 uM KH2PO4, read-out: pIC50 range for human Nap2b (converted)
Method: Materials. HEK293 cells were obtained from the American Type Culture collection and propagated per their instructions. […] After incubation for 3-30 minutes at room temperature, assay mixtures were removed, and the cells were washed twice with ice cold stop solution (137 mM sodium chloride, 14 mM Tris, pH 7.4). Cells were lysed by addition of 20 μL 0.1% Tween 80 followed by 100 μL scintillation fluid, and counted using a TopCount (Perkin Elmer). […]
// reported IC50 for each item listed

Here are 3 compounds together with their reported answers.
CN(CCN1CCOCC1)C(=O)c1cccc(C(=O)Nc2ccc(N3CCCCC3)cc2C(=O)Nc2nc(-c3cccc(C(F)(F)F)c3)n[nH]2)c1 :: < 1000 nM
CN(CCOCCOCCOCCC(=O)O)Cc1cccc(C(=O)Nc2ccc(N3CCCCC3)cc2C(=O)Nc2ccn(-c3cccc(C(F)(F)F)c3)n2)c1 :: 1000 to 7940 nM
O=C(O)CCOCCOCCOCCNC(=O)Cc1cccc(SCc2cccc(C(=O)Nc3ccc(N4CCCCC4)cc3C(=O)Nc3ccn(-c4cccc(C(F)(F)F)c4)n3)c2)c1 :: < 1000 nM

So what does the record say about IC50 for "CN(CCN1CCOCC1)C(=O)c1cccc(C(=O)Nc2ccc(N3CCCCC3)cc2C(=O)Nc2ccn(-c3cccc(C(F)(F)F)c3)n2)c1" ?
< 1000 nM

Would you kindly share the measured IC50 for "O=C(O)CCSCc1cccc(C(=O)Nc2ccc(N3CCCCC3)cc2C(=O)Nc2ccn(-c3cccc(C(F)(F)F)c3)n2)c1" ?
1000 to 7940 nM

What does the data say about its IC50? Entry: CN(CCN1CCOCC1)C(=O)c1cccc(C(=O)Nc2ccc(Cl)cc2C(=O)Nc2ccn(-c3cccc(C(F)(F)F)c3)n2)c1 [Example 14, 2,2,2-trifluoroacetate]
< 1000 nM

IC50 for "O=C(O)Cc1cccc(SCc2cccc(C(=O)Nc3ccc(N4CCCCC4)cc3C(=O)Nc3ccn(-c4cccc(C(F)(F)F)c4)n3)c2)c1" ?
< 1000 nM

Name the recorded IC50 for "CN(CCOCCOCCOCCC(=O)O)C(=O)c1cccc(C(=O)Nc2ccc(N3CCCCC3)cc2C(=O)Nc2ccn(-c3cccc(C(F)(F)F)c3)n2)c1" .
< 1000 nM

* * *

test: Determination of compound Cmax and AUC after oral gavage; format: in vivo, Sprague-Dawley rats; settings: Sprague-Dawley, rat plasma, nominal 2.5 mg/kg (actual 1.9 mg/kg), sampling 0.5-4 h
readout: AUC (ng·h/mL)
Hi! Could you send only the number? It should be in ng·h/mL, unit omitted.

I would be grateful if you could share the reported AUC for "O=C(O)c1cccc(SCc2cccc(C(=O)Nc3ccc(N4CCCCC4)cc3C(=O)Nc3ccn(-c4cccc(C(F)(F)F)c4)n3)c2)c1" .
2130

* * *

Recorded AUC for the following molecules
assay: Determination of compound Cmax and AUC after oral gavage; assay type: in vivo, Sprague-Dawley rats; conditions: Sprague-Dawley, rat plasma, nominal 10 mg/kg (actual 7.6-11 mg/kg), sampling 0.5-4 h
Use ng·h/mL as the unit, but write only the number.

O=C(O)c1cccc(SCc2cccc(C(=O)Nc3ccc(N4CCCCC4)cc3C(=O)Nc3ccn(-c4cccc(C(F)(F)F)c4)n3)c2)c1 [Example 18] :: 6050

Quick one: AUC for CN(CCN1CCOCC1)C(=O)c1cccc(C(=O)Nc2ccc(Cl)cc2C(=O)Nc2ccn(-c3cccc(C(F)(F)F)c3)n2)c1 [Example 14, 2,2,2-trifluoroacetate] ?
788

* * *

assay: Stability in simulated gastric and intestinal fluid; type: in vitro ADME; settings: simulated gastric fluid with 3 mg/mL pepsin, 6 hr, 1-20 μM
readout: % remaining, SGF (%)

Examples with answers:
CN(CCN1CCOCC1)C(=O)c1cccc(C(=O)Nc2ccc(Cl)cc2C(=O)Nc2ccn(-c3cccc(C(F)(F)F)c3)n2)c1 [Example 14, 2,2,2-trifluoroacetate] :: 93
O=C(O)CCOCCOCCOCCNC(=O)Cc1cccc(SCc2cccc(C(=O)Nc3ccc(N4CCCCC4)cc3C(=O)Nc3ccn(-c4cccc(C(F)(F)F)c4)n3)c2)c1 :: 91

1. CN(CCOCCOCCOCCC(=O)O)C(=O)c1cccc(C(=O)Nc2ccc(N3CCCCC3)cc2C(=O)Nc2ccn(-c3cccc(C(F)(F)F)c3)n2)c1
2. O=C(O)CCOCCOCCOCCNC(=O)c1cccc(C(=O)Nc2ccc(Cl)cc2C(=O)Nc2ccn(-c3cccc(C(F)(F)F)c3)n2)c1
// compare: 1 vs 2 , metric % remaining, SGF, want the smaller Please indicate the selected item by its label.
2

* * *

tested on: NaPi2b; assay: Competition with phosphate: uptake assay repeated at 2.1 vs 0.1 mM phosphate; format: cell-based; settings: potency for inhibition of NaPi2b at 2.1 vs 0.1 mM phosphate
readout: Competitive with respect to Pi?

O=C(O)P(=O)(O)O [PFA, reference compound] :: Yes
O=C(O)CCOCCOCCOCCNC(=O)Cc1cccc(SCc2cccc(C(=O)Nc3ccc(N4CCCCC4)cc3C(=O)Nc3ccn(-c4cccc(C(F)(F)F)c4)n3)c2)c1 :: No
CN(CCN1CCOCC1)C(=O)c1cccc(C(=O)Nc2ccc(N3CCCCC3)cc2C(=O)Nc2ccn(-c3cccc(C(F)(F)F)c3)n2)c1 :: No
O=C(O)c1cccc(SCc2cccc(C(=O)Nc3ccc(N4CCCCC4)cc3C(=O)Nc3ccn(-c4cccc(C(F)(F)F)c4)n3)c2)c1 :: No
